Entries and their measured melting point follow.

Ask: Data request, read-out melting point, for c1ccc(-c2ccc(-c3cnc4ccccc4n3)cc2)cc1
Result: 126 to 127 °C

Continuing:
Ask: Fill blank: measured melting point of the molecule COc1ccc(-c2cnc3ccccc3n2)cc1 is ____.
Result: 101 to 102 °C

Ask: Can you share its melting point? I mean this molecule: c1ccc(-c2ccc(-c3ccc4ccccc4n3)cc2)cc1
Result: 180 to 182 °C

Ask: melting point for Clc1ccc(-c2ccc3ccccc3n2)cc1 ?
Result: 113 to 115 °C

Ask: Given the entry c1ccc2nc(-c3ccsc3)cnc2c1 , report its measured melting point.
Result: 86 to 87 °C

Ask: Quick check: melting point of c1ccc2nc(-c3ccsc3)ccc2c1 ?
Result: 132 to 133 °C
